Reference for the values: patent US20100260765A1

Biological target: T1, mouse KDR (Flk-1)/Fc (Cat. #443-KD/CF, R&D Systems, Inc.) (mouse, UniProt P35918 20-762)
T1 construct: Bought reagent; also called mouse VEGFR2; KDR mouse ortholog; not shown: Fc of the bought fusion protein
T1 sequence (P35918 20-762 limits assumed): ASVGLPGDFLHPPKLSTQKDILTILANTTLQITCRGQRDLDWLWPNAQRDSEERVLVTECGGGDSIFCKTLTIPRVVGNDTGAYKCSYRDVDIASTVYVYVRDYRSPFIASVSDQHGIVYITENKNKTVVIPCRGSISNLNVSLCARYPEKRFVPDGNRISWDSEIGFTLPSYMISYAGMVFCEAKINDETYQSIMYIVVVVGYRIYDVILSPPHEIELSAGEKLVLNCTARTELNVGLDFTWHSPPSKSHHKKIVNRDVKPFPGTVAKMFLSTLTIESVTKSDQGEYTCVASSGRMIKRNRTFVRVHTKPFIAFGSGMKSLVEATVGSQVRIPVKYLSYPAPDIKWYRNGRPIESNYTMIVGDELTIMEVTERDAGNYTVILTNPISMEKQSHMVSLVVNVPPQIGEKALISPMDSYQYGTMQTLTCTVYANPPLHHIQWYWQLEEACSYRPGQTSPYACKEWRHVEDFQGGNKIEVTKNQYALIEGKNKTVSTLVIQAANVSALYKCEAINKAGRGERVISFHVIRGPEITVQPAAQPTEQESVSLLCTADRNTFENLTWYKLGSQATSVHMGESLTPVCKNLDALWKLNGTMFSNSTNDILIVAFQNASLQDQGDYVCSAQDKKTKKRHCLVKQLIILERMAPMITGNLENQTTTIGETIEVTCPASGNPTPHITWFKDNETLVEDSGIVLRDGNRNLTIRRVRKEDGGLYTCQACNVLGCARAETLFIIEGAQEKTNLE
Experiment: ELISA, Flk-1 coat 5 ug/mL, antibody 0.1 ug/mL
Answer each item with its documented ELISA reading.
Reply with just the number.

Looking for the measured ELISA reading of 29H3 (antibody, V domains shown, Fully human monoclonal antibody from a XenoMouse hybridoma (IgG2 or IgG4 strain), purified) VH: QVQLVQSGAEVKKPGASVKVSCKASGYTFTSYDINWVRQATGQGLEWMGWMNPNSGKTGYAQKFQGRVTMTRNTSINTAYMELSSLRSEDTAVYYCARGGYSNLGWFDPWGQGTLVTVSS VL: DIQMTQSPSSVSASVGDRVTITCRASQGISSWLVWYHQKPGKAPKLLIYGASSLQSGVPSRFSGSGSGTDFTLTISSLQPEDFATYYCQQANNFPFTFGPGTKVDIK , can you help?
2.35

Which measured ELISA reading value corresponds to 22B8 (antibody, V domains shown, Fully human monoclonal antibody from a XenoMouse hybridoma (IgG2 or IgG4 strain), purified) VH: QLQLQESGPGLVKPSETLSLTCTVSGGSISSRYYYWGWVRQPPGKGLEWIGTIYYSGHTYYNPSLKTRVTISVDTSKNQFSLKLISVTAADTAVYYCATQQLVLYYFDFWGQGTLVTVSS VL: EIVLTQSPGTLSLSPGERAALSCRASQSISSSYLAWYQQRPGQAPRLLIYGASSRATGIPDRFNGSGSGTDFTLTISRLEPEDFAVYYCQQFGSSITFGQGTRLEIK ?
2.94

Which ELISA reading value is on record for 24B3 (antibody, V domains shown, Fully human monoclonal antibody from a XenoMouse hybridoma (IgG2 or IgG4 strain), purified) VH: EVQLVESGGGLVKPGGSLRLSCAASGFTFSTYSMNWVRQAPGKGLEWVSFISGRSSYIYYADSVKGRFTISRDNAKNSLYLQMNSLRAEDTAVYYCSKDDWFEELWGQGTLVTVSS VL: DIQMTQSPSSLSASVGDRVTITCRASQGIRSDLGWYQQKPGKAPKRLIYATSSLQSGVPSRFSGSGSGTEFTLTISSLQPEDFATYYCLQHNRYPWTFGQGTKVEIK ?
2.75
